- assay system: human recombinant histamine H1 receptor (Homo sapiens, UniProt P35367)
- Construct: expressed in transfected cells; host or cells: CHO-K1
- Sequence (P35367 whole entry): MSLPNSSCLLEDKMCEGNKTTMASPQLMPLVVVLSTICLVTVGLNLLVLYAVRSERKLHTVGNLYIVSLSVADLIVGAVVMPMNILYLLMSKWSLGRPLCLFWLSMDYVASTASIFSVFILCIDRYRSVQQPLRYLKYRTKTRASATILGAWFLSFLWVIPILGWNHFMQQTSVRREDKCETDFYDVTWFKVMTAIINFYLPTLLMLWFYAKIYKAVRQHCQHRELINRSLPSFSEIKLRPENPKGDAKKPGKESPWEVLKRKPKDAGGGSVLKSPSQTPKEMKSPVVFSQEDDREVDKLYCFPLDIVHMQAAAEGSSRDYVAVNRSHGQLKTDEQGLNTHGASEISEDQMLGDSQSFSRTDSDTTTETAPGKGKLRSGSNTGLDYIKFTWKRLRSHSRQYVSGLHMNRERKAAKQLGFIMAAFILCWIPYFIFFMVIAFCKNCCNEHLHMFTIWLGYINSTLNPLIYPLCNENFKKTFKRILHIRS
- assay details: Histamine H1 radioligand binding ([3H]Pyrilamine)
- details: read-out: Histamine H1 Binding (1 μM), percent inhibition of specific binding; compound at 1 μM; 1.2 nM [3H]Pyrilamine
We begin with a simple list: items and their reported inhibition at 1 µM.
The answer is to be given in %; state only the numeric part.

The molecule listed as `Cc1ccc2c(c1)c1c(n2-c2cscc2-c2ccc3cnccc3c2)CCN(C)C1` shows inhibition at 1 µM equal to 30

----------
- assay system: human recombinant serotonin (5-Hydroxytryptamine) 5-HT2C receptor (Homo sapiens)
- Construct: expressed in transfected cells; host or cells: CHO-K1
- Sequence (P28335 33-458): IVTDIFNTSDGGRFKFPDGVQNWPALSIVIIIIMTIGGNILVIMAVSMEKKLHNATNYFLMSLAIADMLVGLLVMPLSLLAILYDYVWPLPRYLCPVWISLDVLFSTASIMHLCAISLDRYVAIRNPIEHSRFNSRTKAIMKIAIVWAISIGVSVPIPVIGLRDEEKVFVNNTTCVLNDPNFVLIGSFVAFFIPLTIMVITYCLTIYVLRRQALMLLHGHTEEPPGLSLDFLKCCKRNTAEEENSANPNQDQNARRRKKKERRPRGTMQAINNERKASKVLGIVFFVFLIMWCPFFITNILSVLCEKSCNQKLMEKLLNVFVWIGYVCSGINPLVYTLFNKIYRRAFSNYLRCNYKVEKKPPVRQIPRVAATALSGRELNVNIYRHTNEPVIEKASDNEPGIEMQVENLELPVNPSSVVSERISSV
- assay details: Serotonin 5-HT2C radioligand binding ([3H]Mesulergine)
- details: compound at 0.1 μM; read-out: Inhibition of ligand binding, Serotonin 5-HT2C (percent inhibition of specific binding)
metric name: inhibition at 0.1 µM (%)
The answer is to be given in %; state only the numeric part.

Previously resolved entries follow.
[
  {
    "molecule": "Cc1ccc2c(c1)c1c(n2-c2ccccc2-c2ccc(F)cc2)CCN(C)C1 [Compound 10]",
    "assay system": "human recombinant serotonin (5-Hydroxytryptamine) 5-HT2C receptor (Homo sapiens)",
    "reported result": 94
  },
  {
    "molecule": "Cc1cc(C)c2c(c1)c1c(n2-c2cccc(-c3ccncc3)c2)CCN(C)C1 [Compound 57]",
    "assay system": "human recombinant serotonin (5-Hydroxytryptamine) 5-HT2C receptor (Homo sapiens)",
    "reported result": 28
  },
  {
    "molecule": "Cc1ccc2c(c1)c1c(n2-c2cccc(-c3ccnn3C)c2)CCN(C)C1 [Compound No. 66]",
    "assay system": "human recombinant serotonin (5-Hydroxytryptamine) 5-HT2C receptor (Homo sapiens)",
    "reported result": 55
  },
  {
    "molecule": "Cc1ccc2c(c1)c1c(n2-c2cccc(-c3ccc(S(C)(=O)=O)cc3)c2)CCN(C)C1 [Compound No. 131]",
    "assay system": "human recombinant serotonin (5-Hydroxytryptamine) 5-HT2C receptor (Homo sapiens)",
    "reported result": -6
  },
  {
    "molecule": "Cc1ccc2c(c1)c1c(n2-c2ccc(-c3ccc4c(ccn4C)c3)cn2)CCN(C)C1 [Compound No. 136]",
    "assay system": "human recombinant serotonin (5-Hydroxytryptamine) 5-HT2C receptor (Homo sapiens)",
    "reported result": 101
  },
  {
    "molecule": "CN1CCc2c(c3cc(Cl)ccc3n2-c2cscc2-c2ccccc2)C1 [Compound 26]",
    "assay system": "human recombinant serotonin (5-Hydroxytryptamine) 5-HT2C receptor (Homo sapiens)",
    "reported result": 96
  },
  {
    "molecule": "Cc1ccc2c(c1)c1c(n2-c2cccc(-c3ccc(C)nc3)c2)CCN(C)C1 [Compound 60]",
    "assay system": "human recombinant serotonin (5-Hydroxytryptamine) 5-HT2C receptor (Homo sapiens)",
    "reported result": 53
  },
  {
    "molecule": "Cc1ccc2c(c1)c1c(n2-c2cscc2-c2cnn(C)c2)CCN(C)C1 [Compound 30]",
    "assay system": "human recombinant serotonin (5-Hydroxytryptamine) 5-HT2C receptor (Homo sapiens)",
    "reported result": 84
  }
]

The molecule listed as Cc1csc(-c2cccc(-n3c4c(c5cc(C)ccc53)CN(C)CC4)c2)c1 [Compound No. 63] shows inhibition at 0.1 µM equal to 77

The molecule listed as Cc1ccc2c(c1)c1c(n2-c2cccc3ccncc23)CCN(C)C1 [Compound 58] shows inhibition at 0.1 µM equal to 81

The molecule listed as Cc1ccc2c(c1)c1c(n2-c2ccc3ncccc3c2)CCN(C)C1 [Compound 24] shows inhibition at 0.1 µM equal to 66

The molecule listed as Cc1ccc2c(c1)c1c(n2-c2cccc3cnccc23)CCN(C)C1 [Compound 9] shows inhibition at 0.1 µM equal to 77

The molecule listed as Cc1ccc2c(c1)c1c(n2-c2cccc(-c3ccc(F)nc3)c2)CCN(C)C1 [Compound 44] shows inhibition at 0.1 µM equal to 83

The molecule listed as Cc1ccc2c(c1)c1c(n2-c2cccc(-c3cccn3C)c2)CCN(C)C1 [Compound No. 69] shows inhibition at 0.1 µM equal to 79

The molecule listed as Cc1ccc2c(c1)c1c(n2-c2ccc3cnccc3c2)CCN(C)C1 [Compound 38] shows inhibition at 0.1 µM equal to 88

The molecule listed as Cc1ccc2c(c1)c1c(n2-c2ccccc2-c2cnc(N(C)C)nc2)CCN(C)C1 [Compound 31] shows inhibition at 0.1 µM equal to 15

The molecule listed as COc1ccc(-n2c3c(c4cc(C)ccc42)CN(C)CC3)cn1 [Compound 17] shows inhibition at 0.1 µM equal to 44

The molecule listed as Cc1csc(-c2ccccc2-n2c3c(c4cc(C)ccc42)CN(C)CC3)c1 [Compound 36] shows inhibition at 0.1 µM equal to 83

Every entry's value here was drawn from patent US9187471B2.
